system: Escherichia coli TOP10; assay: shrunken log2 fold change of peptide-encoding DNA abundance (4.5 h post-induction vs induction); higher = less antimicrobial activity (less host growth inhibition); conditions: time post-induction: 4.5 h; library: site-saturation at positions 5, 18, 19, 20
assayEndpoint: shrunken log2 fold change
Give a plain numeric answer without units written out.

Q: Field: shrunken log2 fold change (Escherichia coli TOP10). Entry: RRIRQRPPRLPRPRPRPYQYPRP
A: -0.016

Q: One more sequence: RRIRWRPPRLPRPRPRPWSSPRP
A: -0.0663

Q: And for RRIRKRPPRLPRPRPRPYPVPRP ?
A: -0.801

Q: Here is the next sequence: RRIRCRPPRLPRPRPRPCQLPRP
A: -0.171

Q: Same lookup for RRIRMRPPRLPRPRPRPRLGPRP , please.
A: 0.644

Q: Would you kindly repeat that for RRIRFRPPRLPRPRPRPPIVPRP ?
A: -0.126

Q: Quick one: RRIRERPPRLPRPRPRPFIFPRP
A: -0.476

Q: Try the sequence RRIRYRPPRLPRPRPRPGYQPRP
A: -0.241

Q: Lookup RRIRTRPPRLPRPRPRPPLEPRP
A: 0.531

Q: Record: RRIRYRPPRLPRPRPRPIECPRP
A: 0.00468

Q: Continue with RRIRTRPPRLPRPRPRPMTAPRP
A: 0.154

Q: Thanks! And RRIRSRPPRLPRPRPRPYWEPRP ?
A: -0.0147

Q: Record: RRIRYRPPRLPRPRPRPTELPRP
A: 0.0588

Q: Input RRIRVRPPRLPRPRPRPGNRPRP
A: -0.0858

Q: Same thing, different sequence: RRIRYRPPRLPRPRPRPHLHPRP
A: -1.12

Q: Now the sequence RRIRFRPPRLPRPRPRPKSRPRP
A: -0.0938

Q: Would you kindly repeat that for RRIRGRPPRLPRPRPRPVKLPRP ?
A: -0.0292

Q: Another: RRIRRRPPRLPRPRPRPVVMPRP
A: -0.0785

Q: Field entry: RRIRVRPPRLPRPRPRPDKDPRP
A: -0.337

Q: Ok, now RRIRPRPPRLPRPRPRPKLLPRP
A: -0.0549

Q: Now the sequence RRIRNRPPRLPRPRPRPLDLPRP
A: 0.00897

Q: Try RRIRKRPPRLPRPRPRPFMVPRP next.
A: -0.145

Q: Then RRIRCRPPRLPRPRPRPVSVPRP ?
A: -0.0739

Q: How about this sequence: RRIRYRPPRLPRPRPRPRYPPRP
A: -0.83

Q: # repeat for RRIRVRPPRLPRPRPRPKRVPRP
A: 0.0344

Q: Also, RRIRRRPPRLPRPRPRPDPYPRP please.
A: 0.175

Q: Note, next up: RRIRFRPPRLPRPRPRPYIPPRP
A: -1.8

Q: Another sequence to look at: RRIRTRPPRLPRPRPRPNGWPRP
A: 0.215

Q: Try RRIRSRPPRLPRPRPRPEVCPRP next.
A: 0.11

----------
system: Escherichia coli TOP10; test: shrunken log2 fold change of peptide-encoding DNA abundance (4.5 h post-induction vs induction); higher = less antimicrobial activity (less host growth inhibition); conditions: time post-induction: 4.5 h; library: site-saturation at positions 5, 18, 19, 20
assayEndpoint: shrunken log2 fold change
Lab note: write the figure by itself, no unit.

Q: Fill in: shrunken log2 fold change of RRIRQRPPRLPRPRPRPIMLPRP is ___
A: -0.433

Q: Now the same for RRIRYRPPRLPRPRPRPPNMPRP
A: -0.863

Q: RRIRMRPPRLPRPRPRPPFAPRP ?
A: 1.07

Q: Next: RRIRIRPPRLPRPRPRPLITPRP
A: -0.71

Q: Continue with RRIRMRPPRLPRPRPRPYGDPRP
A: 0.0122

Q: Now give it for RRIRQRPPRLPRPRPRPYKRPRP too.
A: -0.213

Q: Now consider RRIRCRPPRLPRPRPRPKNYPRP .
A: -0.676

Q: Further, for RRIRTRPPRLPRPRPRPMGLPRP ?
A: 0.12

Q: Also check RRIRQRPPRLPRPRPRPMIMPRP
A: 0.0999

Q: Repeat with RRIRLRPPRLPRPRPRPSQIPRP
A: 0.0199

Q: Check RRIRTRPPRLPRPRPRPEWMPRP too.
A: -0.048

Q: Another: RRIRFRPPRLPRPRPRPFNEPRP
A: -0.322

Q: RRIRRRPPRLPRPRPRPLNFPRP , same question.
A: -0.115

Q: And then RRIRIRPPRLPRPRPRPEVWPRP , what is it?
A: 0.217

Q: Then RRIRMRPPRLPRPRPRPVGFPRP ?
A: 0.405

Q: What do you have for RRIRDRPPRLPRPRPRPRCPPRP ?
A: 0.131

Q: What do you have for RRIRRRPPRLPRPRPRPMQMPRP ?
A: 0.54

Q: Now try RRIRHRPPRLPRPRPRPYQGPRP .
A: -0.00674

Q: Another sequence to check: RRIRARPPRLPRPRPRPSQHPRP
A: -0.117

Q: Queued: RRIRERPPRLPRPRPRPETHPRP
A: 0.178

Q: Query RRIRKRPPRLPRPRPRPTGTPRP next
A: 0.563

Q: Can you handle RRIRSRPPRLPRPRPRPRKSPRP next?
A: 0.139

Q: Request: RRIRHRPPRLPRPRPRPMVSPRP
A: -0.00841

Q: Proceed to RRIRPRPPRLPRPRPRPWQHPRP
A: -0.105

Q: Please do the same for RRIRDRPPRLPRPRPRPKYDPRP as well.
A: 0.0612

----------
Can you tell me shrunken log2 fold change for the items I'm about to list?
test system: Escherichia coli TOP10; test: shrunken log2 fold change of peptide-encoding DNA abundance (4.5 h post-induction vs induction); higher = less antimicrobial activity (less host growth inhibition); conditions: time post-induction: 4.5 h; library: site-saturation at positions 5, 18, 19, 20
Answer as a number with no unit attached.

Q: Which shrunken log2 fold change value belongs to RRIRYRPPRLPRPRPRPFCPPRP ?
A: -0.878

Q: What would you report for RRIRPRPPRLPRPRPRPPYVPRP ?
A: -0.0964

Q: Follow-up item: RRIRERPPRLPRPRPRPEEHPRP
A: -0.0183

Q: Would you mind doing RRIRDRPPRLPRPRPRPIRYPRP as well?
A: -0.103

Q: What about RRIRNRPPRLPRPRPRPWSWPRP ?
A: 0.266

Q: Moving on to the next sequence: RRIRVRPPRLPRPRPRPFTDPRP
A: 0.0809

Q: Another sequence to check: RRIRIRPPRLPRPRPRPVLNPRP
A: -0.492

Q: # repeat for RRIRQRPPRLPRPRPRPINEPRP
A: 0.0162

Q: Also check RRIRYRPPRLPRPRPRPYSNPRP
A: -0.127

Q: Entry to check: RRIRRRPPRLPRPRPRPHRYPRP
A: -0.0438

Q: Record: RRIRKRPPRLPRPRPRPLAIPRP
A: 0.0828

Q: Also RRIRCRPPRLPRPRPRPACMPRP , if possible.
A: -0.162

Q: What would you report for RRIRSRPPRLPRPRPRPPKQPRP ?
A: -0.215

Q: Entry to check: RRIRFRPPRLPRPRPRPIHCPRP
A: -0.138

Q: Consider next the sequence RRIRSRPPRLPRPRPRPGDPPRP in the same way.
A: 0.353

Q: Then RRIRPRPPRLPRPRPRPQTIPRP ?
A: -0.0413

Q: Same thing, different sequence: RRIRTRPPRLPRPRPRPAKQPRP
A: -0.0125

Q: Same thing, different sequence: RRIRYRPPRLPRPRPRPFFRPRP
A: -0.019

Q: Same again, this time with RRIRERPPRLPRPRPRPNQIPRP
A: -0.293

Q: Ok, now RRIRQRPPRLPRPRPRPQDSPRP
A: -0.297

Q: Thanks! And RRIRNRPPRLPRPRPRPSNMPRP ?
A: -0.429

----------
test system: Escherichia coli TOP10; experiment: shrunken log2 fold change of peptide-encoding DNA abundance (4.5 h post-induction vs induction); higher = less antimicrobial activity (less host growth inhibition); conditions: time post-induction: 4.5 h; library: site-saturation at positions 5, 18, 19, 20;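 further: peptides expressed intracellularly from a pBAD plasmid library in pooled LB shake-flask culture, induced with 0.3% L-arabinose, DNA abundance read by NGS, three biological replicates, DESeq2 with apeglm shrinkage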
Please provide measured shrunken log2 fold change for the entries that follow.
Please respond with just the number, no unit label.

Q: Endpoint output: shrunken log2 fold change of RRIRCRPPRLPRPRPRPCTNPRP . Value?
A: -0.134

Q: Consider next the sequence RRIRQRPPRLPRPRPRPGHFPRP in the same way.
A: -0.0162

Q: Next: RRIRHRPPRLPRPRPRPGMPPRP
A: 0.47

Q: Also RRIRWRPPRLPRPRPRPIIAPRP ?
A: 0.00853

Q: Input RRIRKRPPRLPRPRPRPFIIPRP
A: -0.268

Q: Let us now turn to RRIRPRPPRLPRPRPRPPQDPRP
A: 0.523

Q: Here is the next sequence: RRIRERPPRLPRPRPRPNDDPRP
A: -0.121

Q: Now the sequence RRIRSRPPRLPRPRPRPVENPRP
A: 0.0506

Q: Then this sequence: RRIRRRPPRLPRPRPRPGDSPRP
A: 0.269

Q: Field entry: RRIRMRPPRLPRPRPRPTPNPRP
A: 0.87

Q: Next record, please: RRIRTRPPRLPRPRPRPYCMPRP
A: -1.28

Q: Also RRIRFRPPRLPRPRPRPMFFPRP , if possible.
A: -0.549

Q: Entry to check: RRIRMRPPRLPRPRPRPNWYPRP
A: -0.0601

Q: What do you have for RRIRHRPPRLPRPRPRPMDIPRP ?
A: -0.00136

Q: Also need RRIRARPPRLPRPRPRPRWEPRP , thanks.
A: 0.431

Q: Same lookup for RRIRHRPPRLPRPRPRPAQCPRP , please.
A: 0.101

Q: How about this sequence: RRIRARPPRLPRPRPRPMLIPRP
A: 0.0528

Q: Please do the same for RRIRIRPPRLPRPRPRPCAIPRP as well.
A: 0.137

Q: Thanks! And RRIRHRPPRLPRPRPRPLYEPRP ?
A: -0.211

Q: Lookup RRIRWRPPRLPRPRPRPCYHPRP
A: -0.123

Q: # repeat for RRIRDRPPRLPRPRPRPGHDPRP
A: 0.207

Q: Another: RRIRARPPRLPRPRPRPNLCPRP
A: 0.0317

Q: Next record, please: RRIRPRPPRLPRPRPRPNRMPRP
A: -0.138

Q: Could you do the same for RRIRPRPPRLPRPRPRPMCVPRP , please?
A: 0.076

Q: Same question for RRIRTRPPRLPRPRPRPFDNPRP please.
A: -1.32

Q: Note, next up: RRIRDRPPRLPRPRPRPVWTPRP
A: 0.0494

Q: Request: RRIRERPPRLPRPRPRPENSPRP
A: -0.0336

Q: And then RRIRVRPPRLPRPRPRPQFNPRP , what is it?
A: -0.389

Q: For RRIRHRPPRLPRPRPRPIQWPRP then?
A: -0.01

Q: Try the sequence RRIRYRPPRLPRPRPRPEEYPRP
A: -0.255

Q: Next up: RRIRWRPPRLPRPRPRPLCGPRP
A: 1.71

Q: Moving on to the next sequence: RRIRIRPPRLPRPRPRPHKCPRP
A: -0.639

Q: How about RRIRGRPPRLPRPRPRPGMMPRP ?
A: -0.0297

Q: Then RRIRKRPPRLPRPRPRPTSRPRP ?
A: 0.159

Q: Follow-up entry: RRIRVRPPRLPRPRPRPKCYPRP
A: 0.0107

Q: Then this sequence: RRIRKRPPRLPRPRPRPRPMPRP
A: 0.585

Q: Ok, now RRIRFRPPRLPRPRPRPHGFPRP
A: -0.105

Q: Lookup RRIRCRPPRLPRPRPRPPTAPRP
A: 0.272

Q: Moving on to the next sequence: RRIRVRPPRLPRPRPRPGFFPRP
A: 0.0758

Q: Again, but for RRIRPRPPRLPRPRPRPNCRPRP
A: -0.000174

Q: Same question for RRIRDRPPRLPRPRPRPPSAPRP please.
A: 0.506

Q: What would you report for RRIRQRPPRLPRPRPRPYVMPRP ?
A: -0.108

Q: What about RRIRSRPPRLPRPRPRPHGTPRP ?
A: -0.161

Q: Thanks! And RRIRKRPPRLPRPRPRPGCQPRP ?
A: 0.702

Q: Try this sequence next: RRIRVRPPRLPRPRPRPSRPPRP
A: 0.196

Q: Request: RRIRWRPPRLPRPRPRPPCKPRP
A: -0.0735

Q: Now the same for RRIRPRPPRLPRPRPRPWYTPRP
A: -0.0297
